Biological target: human μ opiate receptor (Homo sapiens, UniProt P35372)
Construct: purchased PerkinElmer Life Sciences, Zaventem, Belgium RB-HOM; host or cells: CHO-K1 cells (membrane preparation)
Sequence (P35372 whole entry): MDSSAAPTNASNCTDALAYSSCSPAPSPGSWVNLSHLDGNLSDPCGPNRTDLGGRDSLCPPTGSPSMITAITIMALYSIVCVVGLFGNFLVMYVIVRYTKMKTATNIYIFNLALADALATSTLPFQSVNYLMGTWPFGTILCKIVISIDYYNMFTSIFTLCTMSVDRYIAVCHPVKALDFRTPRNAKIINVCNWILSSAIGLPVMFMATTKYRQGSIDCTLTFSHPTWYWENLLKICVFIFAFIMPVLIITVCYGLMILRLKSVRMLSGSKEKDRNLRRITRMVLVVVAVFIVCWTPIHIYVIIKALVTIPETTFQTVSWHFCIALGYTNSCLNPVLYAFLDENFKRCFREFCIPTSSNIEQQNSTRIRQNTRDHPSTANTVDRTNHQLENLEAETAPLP
Assay: Affinity for the human μ opiate receptor ([3H]-naloxone displacement, CHO-K1 receptor membrane preparation, SPA)
Type: binding
Conditions: test concentration of 1 μM
quantity: μ (binding on the μ opioid receptor, % inhibition)

compound	result
CC(Oc1ccccc1)C(=O)NC1CCC(C(c2ccc(F)cc2)N(C)C)CC1 (stereo not drawn) [Example 516]	40%
CCN(CCOCC(=O)NCC1CCC(C(c2ccc(Cl)cc2)N(C)C)CC1)S(=O)(=O)c1c(C)cc(OC)c(C)c1C (stereo not drawn) [Example 310]	61%
COc1cc(C)c(S(=O)(=O)N2CCC(OCC(=O)NCCC3CCC(C(c4ccc(Cl)cc4)N(C)C)CC3)CC2)c(C)c1C (stereo not drawn) [Example 472]	44%
COc1cc(C)c(S(=O)(=O)N2CCCC(OCC(=O)NCCC3CCC(C(c4cccc(F)c4)N(C)C)CC3)C2)c(C)c1C (stereo not drawn) [Example 221]	82%
CN(C)C(CCc1ccccc1)C1CCC(CNC(=O)COCCN(C)S(=O)(=O)c2cccc(C(F)(F)F)c2)CC1 (stereo not drawn) [Example 556]	27%
COc1ccc(S(=O)(=O)N2CCCCC2COCC(=O)NC2CCC(C(c3ccc(F)cc3)N(C)C)CC2)cc1 (stereo not drawn) [Example 450]	50%
CCOC(=O)C(=O)NCC1CCC(C(CCc2ccccc2)N(C)C)CC1 (stereo not drawn) [Example 421]	57%
CN(C)C(c1ccc(F)cc1)C1CCC(CCNC(=O)COCCN(C)S(=O)(=O)c2ccc(Cl)cc2)CC1 (stereo not drawn) [Example 377]	59%
CN(C)C(c1cccs1)C1CCC(NC(=O)COCCN(C)S(=O)(=O)c2ccc(OC(F)(F)F)cc2)CC1 (stereo not drawn) [Example 282]	74%
CN(C)C(CCc1ccccc1)C1CCC(CNC(=O)COCCN(C)S(=O)(=O)c2ccc(OC(F)(F)F)cc2)CC1 (stereo not drawn) [Example 567]	23%

Q: // query μ (binding on the μ opioid receptor, % inhibition) value for entry CN(C)C(c1ccc(F)cc1)C1CCC(CNC(=O)COC2CCN(S(=O)(=O)c3cccc(C(F)(F)F)c3)C2)CC1 (stereo not drawn) [Example 402]
Ans: 53%

Q: One more compound: CN(C)C(c1ccc(F)cc1)C1CCC(CCNC(=O)COCCN(C)S(=O)(=O)c2ccc(Cl)cc2Cl)CC1 (stereo not drawn) [Example 586]
Ans: 3%

Q: Thanks! And COc1ccc(S(=O)(=O)N2CCCCC2COCC(=O)NCC2CCC(C(c3ccc(F)cc3)N(C)C)CC2)c(OC)c1 (stereo not drawn) [Example 405] ?
Ans: 52%

Q: Then CN(C)C(CCc1ccccc1)C1CCC(NC(=O)COc2ccc(Cl)cc2)CC1 (stereo not drawn) [Example 564] ?
Ans: 24%

Q: Next compound: COc1ccc(S(=O)(=O)N2CCCCC2COCC(=O)NCC2CCC(C(c3ccc(Cl)cc3)N(C)C)CC2)c(OC)c1 (stereo not drawn) [Example 280]
Ans: 73%
